ASSAYED_SYSTEM: Thrombin (UniProt P00734;P00734 P00734:328-363,P00734:364-622)
TEST_METHOD_NOTES: filter; specificity control
MEASURED_PARAMETER: pKd
pKd is defined as minus the log10 of a concentration measured in mol/L.

Record ligand 24 (class II) (ssRNA, 2'-NH2 all pyrimidines) RNA: GGGAGCUCAGAAUAAACGCUCAAGGUAGACAUACGCCUUGGGGGGGUAUCAGGGUAUAUGGUAUUCGACAUGAGGCCCGGAUCCGGC . Reported pKd: 6.22
